test system: Trypanosoma brucei brucei; test: Antitrypanosomal activity against Trypanosoma brucei brucei TC 221 assessed as parasite growth inhibition after 72 hrs by Alamar blue assay; type: functional; conditions: TC 221, 72 h
OBSERVED PROPERTY: IC50

                               query_smiles  observed_property  recorded_measurement
0  N#CC1(NC(=O)[C@@H]2Cc3ccc(c(Cl)c3)OCCCCOc3cc(C(F)(F)F)ccc3C(=O)N2)CC1               IC50                  4 nM

// next item, IC50 requested
Request: I would be grateful if you could share the reported IC50 for N#CC1(NC(=O)[C@@H]2Cc3ccc(c(Cl)c3)OCCCCOc3cc4c(cc3C(=O)N2)CCCC4)CC1 .
Result: 1 nM

====

# collection of Ki values tested on Procathepsin L (Homo sapiens, UniProt P07711)
# Sequence (P07711 whole entry): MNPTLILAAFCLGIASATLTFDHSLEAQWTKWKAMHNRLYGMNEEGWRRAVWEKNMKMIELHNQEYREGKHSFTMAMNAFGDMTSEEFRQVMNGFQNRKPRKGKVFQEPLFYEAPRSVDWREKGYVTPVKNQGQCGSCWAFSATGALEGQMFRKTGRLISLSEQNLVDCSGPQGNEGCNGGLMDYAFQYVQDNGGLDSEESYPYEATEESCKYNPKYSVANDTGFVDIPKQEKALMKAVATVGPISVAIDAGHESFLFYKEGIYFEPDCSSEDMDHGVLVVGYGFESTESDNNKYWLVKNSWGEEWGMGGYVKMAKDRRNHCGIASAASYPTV
A number alone suffices; assume nM.

In [3]: df
Out[3]:
                                   compound  recorded_measurement
0  N#CC1(NC(=O)[C@@H]2Cc3ccc(c(Cl)c3)OC/C=C/COc3ccc(-c4ccc(F)cc4)cc3C(=O)N2)CC1 (mixture of isomers)                  15.5
1  N#CC1(NC(=O)[C@@H]2Cc3ccc(c(Cl)c3)OCCCCOc3cc(C(F)(F)F)ccc3C(=O)N2)CC1                    10
2  N#CC1(NC(=O)[C@@H]2Cc3ccc(c(Cl)c3)OC/C=C/Cn3c(=O)c(cc4cc(Cl)ccc43)C(=O)N2)CC1 (mixture of isomers)                   274
3  N#CC1(NC(=O)[C@@H]2Cc3ccc(c(Cl)c3)OCCCCOc3cc4c(cc3C(=O)N2)CCCC4)CC1                     3
4  N#CC1(NC(=O)[C@@H]2Cc3ccc(c(Cl)c3)OCC#CCOc3c(F)cc(F)cc3C(=O)N2)CC1 (single isomer, unassigned; atropisomer 2)                   1.2

Request: Notebook: pull reported Ki for Procathepsin L (Homo sapiens, UniProt P07711), entry N#CC1(NC(=O)[C@@H]2Cc3ccc(c(I)c3)OCCCCOc3cc(C(F)(F)F)ccc3C(=O)N2)CC1
Result: 5.8

Request: Notebook: pull reported Ki for Procathepsin L (Homo sapiens, UniProt P07711), entry N#CC1(NC(=O)[C@@H]2Cc3ccc(c(Cl)c3)OC/C=C/COc3cc(-c4ccc(Cl)nc4)ccc3C(=O)N2)CC1 (mixture of isomers)
Result: 7.3

====

test: Ratio of drug level in brain to plasma in C57BL/6J mouse administered via iv as bolus dose by LC-MS/MS analysis
OBSERVED PROPERTY: Kp

Request: I would be grateful if you could share the reported Kp for N#CC1(NC(=O)[C@@H]2Cc3ccc(c(Cl)c3)OCCCCOc3cc(C(F)(F)F)ccc3C(=O)N2)CC1 .
Result: < 0.5

====

test: Drug uptake in rat cerebrospinal fluid at 3 mg/kg administered via infusion over 30 mins; type: ADME, organism-based; details: iv, read-out: Drug uptake
OBSERVED PROPERTY: concentration at 0.5 h (ng/mL)
A number alone suffices; assume ng/mL.

Request: I would be grateful if you could share the reported concentration at 0.5 h for N#CC1(NC(=O)[C@@H]2Cc3ccc(c(Cl)c3)OCCCCOc3cc(C(F)(F)F)ccc3C(=O)N2)CC1 .
Result: 2.3
